Form field: folding enthalpy (one value per entry).
- ASSAY EXPLANATION: folding enthalpy; higher = less favourable; fluorescence melt of hairpins on a sequencing array, two-state fit
- PARTICULARS: sodium 0.088 M
# output: bare number, implied unit kcal/mol

Please review the following examples before continuing.
SEQ STRING	folding enthalpy (kcal/mol)
GTCCTCGAAAGAGAGAC ((((((....))).)))	-20.2
CGCACGGAAACGTCAGCG ((((((....)))..)))	-26.4
GGTTTTGGAAACAAAGCC ((.((((....)))).))	-29.1

Consider the sequence shown here: GATTACACGAAAGTGATC (((..(((....)))))) What is its recorded folding enthalpy?
-9.64

Reported folding enthalpy for GCCATGCGAAAGCAAGGC (((.(((....))).))) : what is it?
-42.6

Find the recorded folding enthalpy belonging to GGAGTTGGAAACAGCTTC (.((.((....)).)).) and report it.
-37

Name the recorded folding enthalpy for GATCAGTCCACTGATC ((((((....)))))) .
-37.6

Which measured folding enthalpy value corresponds to GCGGATGGAAACATTCGC (((.(((....))).))) ?
-43.5

Need folding enthalpy, item GAGCCACGAAAGTGCTC (((.(((....))))))
-19.9

What folding enthalpy value was documented for this sequence, GCGAGCTTCGC ((((...)))) ?
-18.5

###

- ASSAY EXPLANATION: melting temperature; fluorescence melt of hairpins on a sequencing array, two-state fit, raised by 9.35 °C to match UV melts
- PARTICULARS: sodium 0.088 M
READOUT LABEL: Tm (°C)
Provide only the numeric value, understood in °C.

SEQ STRING	Tm (°C)
GCGTATCGAAAGATGCGC (((.(((....))).)))	66.3
GATGCTGGAAACAGTGTC ((..(((....)))..))	37.8
GATCCGTGCACGGATC ((((((....))))))	66.5
GATCAATAGTTTGATC ((((((....))))))	42.7
GATTCCGAAAGGAGATC ((((((....))).)))	33.7
GGAATCGAAAGATTCC ((((((....))))))	64.3

Would you kindly share the measured Tm for GTCCACGAAAGTGGAGAC ((((((....)))..))) ?
48.7

Can you look up the measured Tm of GTCTTCGAAAGAAAAGAC ((((((....)))..))) for me?
30.8

What measured Tm goes with GGTTATCGAAAGATCACC (((.(((....))).))) ?
42.3

###

- ASSAY EXPLANATION: folding enthalpy; higher = less favourable; fluorescence melt of hairpins on a sequencing array, two-state fit
- PARTICULARS: sodium 0.088 M
folding enthalpy for assorted sequences
Just the number in kcal/mol, nothing appended.

SEQ STRING	READOUT LABEL	MEASUREMENT UNIT	MEASURED NUMBER
GATCTCTAGCGAGATC ((((((....))))))	folding enthalpy	kcal/mol	-23.1
GCGGCCTCCGC ((((...))))	folding enthalpy	kcal/mol	-17.7
GATCAGGCGACTGATC ((((((....))))))	folding enthalpy	kcal/mol	-36.8

// folding enthalpy lookup, key: GTTCAAGAAATTGAAC ((((((....))))))
-29.2

###

- ASSAY EXPLANATION: melting temperature; fluorescence melt of hairpins on a sequencing array, two-state fit, raised by 9.35 °C to match UV melts
- PARTICULARS: sodium 0.088 M
Field: class. Source value: Tm. Ranges: low range = under 50 °C, mid range = from 50 °C up to 60 °C, high range = 60 °C and over

Please review the following examples before continuing.
SEQ STRING	ASSIGNED CLASS
GTTGGGGGAAACCCCGAC ((.((((....)))).))	mid range
GTCTCGGGAAACCAAGAC ((((.((....)).))))	low range
GCTAAGCGAAAGCATCGC ((.(.((....)).).))	low range
GATCACCGAGGTGATC ((((((....))))))	high range
CCTGGGAAACCAGG (((((....)))))	mid range

Category lookup for the sequence GACTTTACGAAAGTAGTC (((..(((....))))))
low range

State the class of the sequence shown: GCACAGCGAAAGCTTCGC ((..(((....)))..))
low range

Class label required: GGATCTCGAAAGAGGTCC (((.(((....))).)))
mid range

For this sequence, which bin applies? GTCTGCGGAAACACAGAC (((((.(....).)))))
low range

Please classify: GAGTACGAAAGTAATCTC ((((((....)))..)))
low range

Which class holds GACACCGGAAACGGTACC (..((((....))))..) ?
low range

Categorize the following entry: GGCGAAGGAAACCTCGCC (((((.(....).)))))
mid range

Class (by measured Tm) for GCGAAGCGAAAGCTCGC (((.(((....))))))
high range

Form: Item = GCCATCCCGAAAGGGGGC (((..(((....)))))) ; Class = ?
mid range

Lab note: sort GATCTCTTCGAGATC ((((((...)))))) into the matching Tm band.
mid range

###

- ASSAY EXPLANATION: melting temperature; fluorescence melt of hairpins on a sequencing array, two-state fit, raised by 9.35 °C to match UV melts
- PARTICULARS: sodium 0.088 M
Values of Tm greater than or equal to 50 °C map to satisfied; values below map to not satisfied.

SEQ STRING	ASSIGNED CLASS
GATCCTATCGAGGATC ((((((....))))))	satisfied

Check if Tm >= 50 °C (inclusive). Item: GGTACCGAAAGGTCCACC ((((((....)))..)))
not satisfied

Hi, just wondering whether GCTTACGAAAGTATCAGC ((((((....)))..))) shows Tm of 50 °C or higher.
not satisfied

###

- ASSAY EXPLANATION: melting temperature; fluorescence melt of hairpins on a sequencing array, two-state fit, raised by 9.35 °C to match UV melts
- PARTICULARS: sodium 0.088 M
Each entry below carries its reported Tm.
Quick reminder: number only, in °C, skip the unit.

For orientation, consider the following solved cases.
SEQ STRING	Tm [°C]
GGCTTTGGAAACAGAGCC ((((.((....)).))))	50.6
GACGTCGGAAACGACATC ((.((((....)))).))	37.2
GCATGTGGAAACACATAC (.(((((....))))).)	38.6
GATCATCTTCATGATC ((((((....))))))	47.3

Given the sequence GATCGGGCCTCCGATC ((((((....)))))) , what is its reported Tm?
59.7

Fill in the blank: the reported Tm of CAACCCGAAAGGCTTG (((.((....)).))) is ____.
30.2

Which Tm is listed for GATCTTGAACAAGATC ((((((....)))))) ?
49.2

// query Tm value for entry GCTTTTTCGAAAGAAAGC (((..(((....))))))
34.4

Entry GCCTCCGAAAGGATCGGC ((((((....)))..))) : reported Tm = ?
45.3

Tm for GTGAGGGGAAACCTTCGC (.((.((....)).)).) ?
33.6

Value lookup for Tm; key = GTGCACGAAAGTGCCCAC ((((((....)))..)))
40.7

###

- ASSAY EXPLANATION: folding enthalpy; higher = less favourable; fluorescence melt of hairpins on a sequencing array, two-state fit
- PARTICULARS: sodium 0.088 M
READOUT LABEL: folding enthalpy
Respond with the figure and its unit, in that order.

Would you please look over these solved cases?
SEQ STRING	READOUT LABEL	RESULT
GGGTTTCGAAAGAAGCCC (((.(((....))).)))	folding enthalpy	-44.4 kcal/mol
GTCCTCCGAAAGGAAGAC (((.(((....))).)))	folding enthalpy	-27.5 kcal/mol

Now look at this one.
Recorded folding enthalpy of GTTTTGGGAAACTAAGAC ((.((.(....).)).)) , please.
-9.09 kcal/mol

###

- ASSAY EXPLANATION: melting temperature; fluorescence melt of hairpins on a sequencing array, two-state fit, raised by 9.35 °C to match UV melts
- PARTICULARS: sodium 0.088 M
READOUT LABEL: Tm (°C)
Please state the figure in °C; there is no need to write the unit.

SEQ STRING	Tm [°C]
GCTACTCGAAAGAGCAGC (((.(((....))).)))	49.6
GTTCGGGGAAACCTGAAC ((((.((....)).))))	49.9
GATCGAATGTCGATC ((((((...))))))	50.6
GATCTACAGTAGATC ((((((...))))))	39.3

Looking for the measured Tm of GAAATACGAAAGTATTC (((.(((....)))))) , can you help?
38.9
